From: ChEMBL document CHEMBL2062477

biological target: M-phase inducer phosphatase 1 (Homo sapiens); test: Inhibition of CDC25A in presence of 2 mM DTT
valueKind: IC50 (µM)
# output: bare number, implied unit µM

- molecule: "CCCCCCCCCCCCCCCC(NCc1ccccc1O)=C1C(=O)OC(CO)C1=O (mixture of isomers)"
  endpointResult: 13.5

Form field IC50, entry CCCCCCCCCCCCCCC/C(NCc1ccccc1)=C1/C(=O)OC(CO)C1=O (configuration not stated) : 16.6

###

Molecular target: UniProtKB P30304
Sequence (P30304 whole entry): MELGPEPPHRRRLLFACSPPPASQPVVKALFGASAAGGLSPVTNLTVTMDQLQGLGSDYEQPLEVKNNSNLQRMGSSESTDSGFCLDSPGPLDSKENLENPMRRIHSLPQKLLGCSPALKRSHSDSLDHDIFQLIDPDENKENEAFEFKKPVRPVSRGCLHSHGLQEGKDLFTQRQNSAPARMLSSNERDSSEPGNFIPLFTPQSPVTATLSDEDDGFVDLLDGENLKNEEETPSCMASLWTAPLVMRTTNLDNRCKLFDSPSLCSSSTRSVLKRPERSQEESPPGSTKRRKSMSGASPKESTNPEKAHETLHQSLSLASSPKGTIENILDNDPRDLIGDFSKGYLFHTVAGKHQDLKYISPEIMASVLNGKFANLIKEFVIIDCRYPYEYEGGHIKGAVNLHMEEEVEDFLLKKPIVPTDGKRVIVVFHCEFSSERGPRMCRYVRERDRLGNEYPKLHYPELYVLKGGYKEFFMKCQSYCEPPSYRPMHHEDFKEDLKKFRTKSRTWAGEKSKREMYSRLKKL
Assay: Inhibition of CDC25A
Below, each entry is listed with its recorded pIC50.
Note on pIC50: it is the negative log10 of concentration, concentration in mol/L.

- molecule: "CCCCCCCCCCCCCCCC(NCc1cccc(N(C)C)c1)=C1C(=O)OC(CO)C1=O (mixture of isomers)"
  valueKind: "pIC50"
  endpointResult: 4.94

The record that follows has no pIC50 shown yet.
Entry CCCCCCCCCCCCCCCC(NCc1cccc(O)c1)=C1C(=O)OC(CO)C1=O (mixture of isomers) — recorded pIC50 = 4.81
